Where do the numbers come from? From ChEMBL document CHEMBL2417463.

fold change (FC) listing for selected molecules.
- STUDY SYSTEM: Oxysterols receptor LXR-beta (Homo sapiens) (UniProt P55055)
- Sequence (P55055 whole entry): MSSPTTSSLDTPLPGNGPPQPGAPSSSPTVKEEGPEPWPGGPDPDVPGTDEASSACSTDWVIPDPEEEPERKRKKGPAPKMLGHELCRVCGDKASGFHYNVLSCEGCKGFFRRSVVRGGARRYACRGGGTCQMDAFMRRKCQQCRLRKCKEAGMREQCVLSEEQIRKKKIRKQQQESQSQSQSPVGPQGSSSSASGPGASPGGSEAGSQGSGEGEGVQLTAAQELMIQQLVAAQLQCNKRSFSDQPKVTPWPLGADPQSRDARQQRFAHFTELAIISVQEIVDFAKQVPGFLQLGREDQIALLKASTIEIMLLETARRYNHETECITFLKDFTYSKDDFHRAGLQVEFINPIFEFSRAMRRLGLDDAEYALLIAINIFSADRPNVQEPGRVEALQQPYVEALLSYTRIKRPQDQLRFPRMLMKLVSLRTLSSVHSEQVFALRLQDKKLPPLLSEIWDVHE
- TEST DETAILS: Agonist activity at human LXRbeta transfected in HEK293 cells at 0.1 uM after 24 hrs by luciferase reporter gene assay relative to vehicle-treated control
- Type: cell-based
Number only, no unit.

O=c1cc(-c2c[nH]c3ccccc23)oc2cc(O)ccc12 1.19
O=C(O)Cc1cccc(OCCCN(Cc2cccc(C(F)(F)F)c2Cl)CC(c2ccccc2)c2ccccc2)c1 1.42
Cc1ccc(/C=C/C(=O)c2ccc(N)cc2O)o1 1.07

(Q) Report value: fold change (FC), system: Oxysterols receptor LXR-beta (Homo sapiens) (UniProt P55055), molecule: "Nc1ccc(C(=O)/C=C/c2ccc3ccccc3c2)c(O)c1"
(A) 1.38

###

- STUDY SYSTEM: Oxysterols receptor LXR-beta (Mus musculus) (UniProt Q60644)
- Sequence (Q60644 whole entry): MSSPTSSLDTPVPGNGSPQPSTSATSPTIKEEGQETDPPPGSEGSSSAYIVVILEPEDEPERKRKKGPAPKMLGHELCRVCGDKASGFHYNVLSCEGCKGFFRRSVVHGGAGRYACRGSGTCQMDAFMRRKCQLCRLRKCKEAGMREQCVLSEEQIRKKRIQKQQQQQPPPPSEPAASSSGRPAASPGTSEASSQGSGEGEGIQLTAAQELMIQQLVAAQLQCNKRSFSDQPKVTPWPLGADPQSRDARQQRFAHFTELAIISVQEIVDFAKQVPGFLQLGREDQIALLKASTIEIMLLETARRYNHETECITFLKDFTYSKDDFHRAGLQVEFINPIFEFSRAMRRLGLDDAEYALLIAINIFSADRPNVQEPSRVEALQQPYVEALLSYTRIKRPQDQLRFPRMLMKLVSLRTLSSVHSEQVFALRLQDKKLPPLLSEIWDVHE
- TEST DETAILS: Agonist activity at LXRbeta in mouse RAW264.7 cells assessed as induction of ABCA1 promoter activation at 1 uM after 24 hrs by Dual-Glo luciferase reporter gene assay relative to vehicle-treated control
- Format: cell-based
REPORTED PROPERTY: fold change (FC)
Give the value as a plain number.

As a guide, the following entries are already answered.
CCOc1ccc(/C=C/C(=O)c2ccc(N)cc2OC)cc1 1.06
CCc1ccc(/C=C/C(=O)c2ccc(N)cc2O)cc1 1.73
Nc1ccc(C(=O)CCc2ccc3ccccc3c2)c(O)c1 1.34
CCOc1ccc(/C=C/C(=O)c2ccc(N)cc2O)cc1OC 1.86
O=c1cc(-c2csc3ccccc23)oc2cc(O)ccc12 1.44
CC(C)c1ccc(/C=C/C(=O)c2ccc(N)cc2O)cc1 2.05
Nc1ccc(C(=O)/C=C/c2cc(C(F)(F)F)cc(C(F)(F)F)c2)c(O)c1 1.12
CCOc1ccc(-c2cc(=O)c3ccc(N)cc3o2)cc1 1.37

Now for another entry.
(Q) Identify measured fold change (FC) associated with "CC1=C(/C=C/C(C)=C\C=C\C(C)=C\C(=O)O)C(C)(C)CCC1"
(A) 2.18

###

- TEST DETAILS: Cytotoxicity against human HepG2 cells assessed as inhibition of cell viability at 50 uM after 48 hrs by SRB assay relative to vehicle-treated control
- Type: cell-based
- RUN CONDITIONS: HepG2 cells, read-out: Activity
REPORTED PROPERTY: inhibition at 48 h, 50 µM (%)
Numeric answer only, unit % assumed.

(Q) Look up and report measured inhibition at 48 h, 50 µM for this entry: "O=c1cc(-c2c[nH]c3ccccc23)oc2cc(O)ccc12"
(A) 45

###

- STUDY SYSTEM: Oxysterols receptor LXR-beta (Homo sapiens) (UniProt P55055)
- TEST DETAILS: Agonist activity at human LXRbeta transfected in HEK293 cells at 1 uM after 24 hrs by luciferase reporter gene assay relative to vehicle-treated control
- Assay type: cell-based
Measured fold change (FC), listed per entry.
Write the value as a bare number.

O=c1cc(-c2c[nH]c3ccccc23)oc2cc(O)ccc12 1.76

(Q) Answer with the recorded fold change (FC) of "Nc1ccc(C(=O)/C=C/c2ccc3ccccc3c2)c(O)c1" only.
(A) 2.22

(Q) Give a short answer stating reported fold change (FC) for "O=C(O)Cc1cccc(OCCCN(Cc2cccc(C(F)(F)F)c2Cl)CC(c2ccccc2)c2ccccc2)c1" .
(A) 1.86

(Q) In one line, give reported fold change (FC) of the entry "Cc1ccc(/C=C/C(=O)c2ccc(N)cc2O)o1" .
(A) 1.79
